Give Proliferation in the Cell Line MaTu/Adr for every item shown.
Test system: MaTu/Adr cells
Measurement Description: Model 3: Proliferation of non-prostate cells, MaTu/Adr
Assay type: cell-based, human
Condition: 10 μM, 3-day treatment; percent of cell growth of solvent control

Given `COc1ccccc1C(=O)N1CCN(CCCCCCC2=C(C)C(=O)N(c3ccc(C#N)c(C(F)(F)F)c3)C2=O)CC1` , respond with its Proliferation in the Cell Line MaTu/Adr.
88 +/− 4%

Given `CC1=C(CCCCN2CCN(S(C)(=O)=O)CC2)C(=O)N(c2ccc(C#N)c(C(F)(F)F)c2)C1=O` , respond with its Proliferation in the Cell Line MaTu/Adr.
94 ± 4%

Given `CC1=C(CCCCCCN2CCN(C(=O)Nc3ccccc3)CC2)C(=O)N(c2ccc(C#N)c(C(F)(F)F)c2)C1=O` , respond with its Proliferation in the Cell Line MaTu/Adr.
90 +/− 10%

Given CC(O)(CS(=O)(=O)c1ccc(F)cc1)C(=O)Nc1ccc(C#N)c(C(F)(F)F)c1 (centres unmarked) [Bicalutamide, reference compound] , respond with its Proliferation in the Cell Line MaTu/Adr.
84 ± 6%

Given `CC1=C(CCCCN2CCN(C(=O)c3ccccc3Cl)CC2)C(=O)N(c2ccc(C#N)c(C(F)(F)F)c2)C1=O` , respond with its Proliferation in the Cell Line MaTu/Adr.
80 +/− 2%
